Data credit: the supplement of paper PMC6757056

For each record, write down the corresponding normalized RNA/DNA level without ligand (log10).
B1: library; a variant is named by its letters at N, in order (parent)
chain: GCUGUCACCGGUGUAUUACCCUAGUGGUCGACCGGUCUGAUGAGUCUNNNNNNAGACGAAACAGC

variants of: B1; assay: normalized RNA/DNA level without ligand (relative to sTRSVctl = 100) (log10 (% of sTRSVctl)); ligand: hypoxanthine (xanthine aptamer); higher = less ribozyme self-cleavage, higher mRNA level; details: HEK293T, reporter: mCherry (pCS4076), ligand present: no
Answers are plain numbers.

Solved entries (count: 5):
Prompt: normalized RNA/DNA level without ligand (log10) for "GGCUAG" ?
Response: 1.54

Prompt: Bench note: what normalized RNA/DNA level without ligand (log10) did "AAGUUU" show?
Response: 1.87

Prompt: Need normalized RNA/DNA level without ligand (log10), item "UCCUGG"
Response: 1.77

Prompt: For "UGCGAC" , what is its reported normalized RNA/DNA level without ligand (log10)?
Response: 1.77

Prompt: I would be grateful if you could share the reported normalized RNA/DNA level without ligand (log10) for "GCGGCU" .
Response: 1.84

Hi team, please reply with normalized RNA/DNA level without ligand (log10) for each item in this list.
1. UAUACC
2. CGCAUU
3. UAGUUA
4. GCGCCC
5. GUACUA

Response:
1. 1.88
2. 1.82
3. 1.86
4. 1.74
5. 1.86
